# protocol summary: LNCaP cell loss by flow event count, confirmation, cytotoxicity control for prostate differentiation activator project, single point (AID 1076);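 also: counts scatter-gated live cells after medium removal discards detached dead cells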
# details: flow cytometry event count, 4 d, event count, at 10 µM, stronger effect = lower value
# 1 = cell event count below 200 (exclusive); 0 = cell event count at/above 200

Find out if reported cell event count for COc1ccc(Cl)cc1N1CCN(CCNC(=O)Nc2ccccc2C)CC1 is less than 200
0

Find out if reported cell event count for Cc1ccc(-c2noc(CCC(=O)NCCCN3CCN(c4ccc(F)cc4)CC3)n2)cc1 is less than 200
1

Find out if reported cell event count for Cc1cc(N2CCN(C)CC2)nc2ccc(NC(=O)c3ccc4c(c3)OCO4)cc12 is less than 200
0

Find out if reported cell event count for N#CC1=C(N)OC2=C(C(=O)CCC2)C1c1ccc(OC(=O)N2CCOCC2)cc1 (stereo not given) is less than 200
0

Find out if reported cell event count for Cn1c(C(=O)NCCC2=CCCCC2)cc2c(=O)n3ccccc3nc21 is less than 200
1

Find out if reported cell event count for O=C(Nc1nc(-c2ccccc2)cs1)C1CCCCN1S(=O)(=O)c1ccccc1 (stereo not given) is less than 200
0

Find out if reported cell event count for Cc1nn(Cc2ccc(F)cc2)c(C)c1NC(=O)c1cc(-c2ccc3c(c2)OCO3)on1 is less than 200
0

Find out if reported cell event count for Cc1ccc(C)c(N2CCN(C(=O)CCNC(=O)Cn3ccc4ccccc4c3=O)CC2)c1 is less than 200
1

Find out if reported cell event count for COc1ccc(CC(=O)Nc2ccc(-c3nnc(-c4ccc(C)cc4)o3)cc2)cc1 is less than 200
1

Find out if reported cell event count for Cc1ccc(S(=O)(=O)NCCCCC(NC(=O)OC(C)(C)C)C(=O)O)cc1 (stereo not given) (tested in a mixture with another compound) is less than 200
1

Find out if reported cell event count for COc1ccc(-c2noc(CCC(=O)NCCCN3CCC(C)CC3)n2)cc1 is less than 200
1

Find out if reported cell event count for Cc1oc(-c2ccc(Cl)cc2)nc1CN1CCC(C(=O)NCCCN2CCCC2=O)CC1 is less than 200
1

Find out if reported cell event count for COc1ccc(CCn2c(=N)c(C(=O)NCc3ccco3)cc3c(=O)n4ccccc4nc32)cc1 is less than 200
0

Find out if reported cell event count for CCC(C(=O)Nc1ccccc1OC)n1c(C(=O)OC)cc2ccsc21 (stereo not given) is less than 200
0

Find out if reported cell event count for COc1ccc(Cc2noc(-c3ccc(C)cc3)n2)cc1 is less than 200
1

Find out if reported cell event count for COc1cc(C2C3=C(Nc4ncnn42)c2ccccc2CC3)cc(OC)c1OC (stereo not given) is less than 200
0

Find out if reported cell event count for COc1ccc(CCNC(=O)C2CCN(Cc3nc(-c4ccccc4C)oc3C)CC2)cc1OC is less than 200
1

Find out if reported cell event count for COc1ccc(N2CCN(CCCNC(=O)CCCn3c(=O)[nH]c4ccsc4c3=O)CC2)cc1 is less than 200
1

Find out if reported cell event count for CCN(CCNC(=O)C1CCN(Cc2nc(-c3cccc(Cl)c3)oc2C)CC1)c1ccccc1 is less than 200
1

Find out if reported cell event count for Cc1cc(C)c2c(=O)n(CC(=O)NCCCN3CCN(c4ccccc4F)CC3)sc2n1 is less than 200
0
